B1: library; a variant is named by its letters at N, in order (parent)
chain: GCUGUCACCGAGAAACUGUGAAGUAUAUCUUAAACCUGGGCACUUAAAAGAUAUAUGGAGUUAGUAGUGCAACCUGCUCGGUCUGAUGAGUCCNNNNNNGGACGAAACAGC

Variants of: B1
procedureSummary: normalized RNA/DNA level without ligand (relative to sTRSVctl = 100) (log10 (% of sTRSVctl)); HEK293T; ligand: cyclic di-GMP (c-di-GMP-II aptamer); higher = less ribozyme self-cleavage, higher mRNA level
measurementSetup: reporter: mCherry (pCS4076), ligand present: no
List of normalized RNA/DNA level without ligand (log10) values.
Enter a number only.

What normalized RNA/DNA level without ligand (log10) value was documented for this variant, `AGGACG` ?
1.59

Next entry: `GAUUAA`
1.55

Next entry: `GCCCCA`
1.72

Next entry: `CUAACC`
1.8

Next entry: `ACUAAG`
1.5

Next entry: `UCCCUC`
1.78

Next entry: `CCGUGA`
1.51

Next entry: `CUUGUU`
1.72

Next entry: `AGGCCU`
1.77

Next entry: `CAGGAU`
1.64

The origin of these recorded values is the supplement of paper PMC6757056.
